Tgt: ZDHHC14
Protocol Details: pooled miR-30 sensor sort-seq; sequence = guide strand; note: reference of the scale not given here
Assay Context: shRNA
Test Readout: sensor-assay potency score (higher = more potent)
Give bare numbers.

>>> value_reported("TTGGAGCTGATCAAGTAGGTGT")
0.206
>>> value_reported("TTAGGAATCCTGTTTGCTGTGA")
0.039
>>> value_reported("TTGGTCGCACATGTCACTCTGT")
0.506

Consider the record given below.
// sensor-assay potency score (higher = more potent) (ZDHHC14) for TAGTAGCATAACACATAAGTGC = -0.719

----------
Tgt: SRSF7
Protocol Details: pooled miR-30 sensor sort-seq; sequence = guide strand
Assay Context: shRNA
Rule: 1 (yes) for sensor-assay potency score (higher = more potent) not less than -0.5, 0 (no) for anything less.

>>> category_label("TAGATCTTGATCGTCGAGGAGA")
"0 (no)"
>>> category_label("TTTCTAACTCTCCTTTGCCAGC")
"0 (no)"
>>> category_label("TAGACCTGGATCTTGATCTTGA")
"1 (yes)"
>>> category_label("TATCAAAACGTGATCTCCGAGG")
"0 (no)"

Okay, now this sequence:
Q. Please tell me: is the sequence TTTCTCGCAATCCATACAGTTC at or over -0.5 in terms of sensor-assay potency score (higher = more potent)?
A. 0 (no)
